test: In vivo pharmacokinetic studies in rats, 1 hr intravenous infusion; conditions: male, Sprague-Dawley, rat, in vivo, iv, 100 mg/kg
assay_metric: Cmax
Provide the measurement as a number trailed by its unit.

Consider the compound Cn1c(=O)ccc2ccc(F)c(CCNC[C@H]3CN(c4cnc5c(n4)NC(=O)CO5)C(=O)O3)c21 and give its recorded Cmax. 62.6 µg/mL

====

target: human ether a go-go related gene (hERG) K+ channel (Homo sapiens, UniProt Q12809); construct: Chinese Hamster Ovary cell line stably expressing the full-length hERG potassium channel; assay: hERG inhibition assay, QPatch HTX automated electrophysiology; settings: CHO cell line stably expressing hERG, whole-cell patch clamp, maximum test concentration 300 μM
Sequence (Q12809 whole entry): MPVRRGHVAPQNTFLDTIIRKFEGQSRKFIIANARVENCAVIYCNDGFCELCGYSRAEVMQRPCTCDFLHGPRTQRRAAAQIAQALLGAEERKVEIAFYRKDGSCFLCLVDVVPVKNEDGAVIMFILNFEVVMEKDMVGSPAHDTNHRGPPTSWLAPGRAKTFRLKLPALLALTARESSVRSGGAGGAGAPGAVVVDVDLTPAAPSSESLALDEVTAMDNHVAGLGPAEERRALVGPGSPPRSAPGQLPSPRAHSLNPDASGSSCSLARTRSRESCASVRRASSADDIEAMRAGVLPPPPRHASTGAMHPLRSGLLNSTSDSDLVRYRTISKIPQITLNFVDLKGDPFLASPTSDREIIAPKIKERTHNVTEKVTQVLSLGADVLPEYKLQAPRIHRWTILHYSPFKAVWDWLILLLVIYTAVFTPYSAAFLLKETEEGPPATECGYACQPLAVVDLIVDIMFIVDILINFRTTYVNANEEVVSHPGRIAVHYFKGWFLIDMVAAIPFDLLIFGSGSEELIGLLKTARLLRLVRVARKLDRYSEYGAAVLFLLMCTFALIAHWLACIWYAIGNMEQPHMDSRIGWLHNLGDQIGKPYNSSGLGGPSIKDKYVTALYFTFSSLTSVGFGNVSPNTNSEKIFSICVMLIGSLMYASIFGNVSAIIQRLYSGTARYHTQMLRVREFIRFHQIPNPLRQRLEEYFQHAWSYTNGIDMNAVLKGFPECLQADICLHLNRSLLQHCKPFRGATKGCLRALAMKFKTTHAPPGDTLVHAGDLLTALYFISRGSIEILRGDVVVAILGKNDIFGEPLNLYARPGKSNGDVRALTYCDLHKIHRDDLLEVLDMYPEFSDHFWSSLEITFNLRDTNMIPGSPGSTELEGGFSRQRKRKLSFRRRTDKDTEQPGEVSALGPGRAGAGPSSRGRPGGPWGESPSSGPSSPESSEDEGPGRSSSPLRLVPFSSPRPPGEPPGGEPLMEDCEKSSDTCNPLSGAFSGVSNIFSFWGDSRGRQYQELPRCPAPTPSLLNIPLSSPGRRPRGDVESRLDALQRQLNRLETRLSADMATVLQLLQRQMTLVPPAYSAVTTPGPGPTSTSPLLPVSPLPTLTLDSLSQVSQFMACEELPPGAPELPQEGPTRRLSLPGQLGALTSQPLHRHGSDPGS
Quick list: IC50 per entry.
Give your result in µM as a bare value.

Example results:
{"compound": "Cn1c(=O)ccc2ccc(F)c(CCNC[C@@H]3CN(c4cnc5c(n4)NC(=O)CO5)C(=O)O3)c21", "display_unit": "µM", "measured_value": 41}
{"compound": "CN1C(=O)CCc2ccc(F)c(CCNC[C@@H]3CN(c4ccc5c(n4)NC(=O)CO5)C(=O)O3)c21", "display_unit": "µM", "measured_value": 12}
{"compound": "Cn1c(=O)ccc2ccc(F)c(CCNC[C@H]3CN(c4ccc5c(n4)NC(=O)CO5)C(=O)O3)c21", "display_unit": "µM", "measured_value": 17}
{"compound": "Cn1c(=O)ccc2ccc(F)c(C[C@H](O)CNC[C@H]3CN(c4ccc5c(n4)NC(=O)CO5)C(=O)O3)c21 (single isomer, unassigned)", "display_unit": "µM", "measured_value": 237}
{"compound": "Cn1c(=O)ccc2ccc(F)c(CCNC[C@H]3CN(c4cnc5c(n4)NC(=O)CO5)C(=O)O3)c21", "display_unit": "µM", "measured_value": 131}

Consider the compound Cn1c(=O)ccc2ccc(F)c(CCCNC[C@H]3CN(c4cnc5c(n4)NC(=O)CO5)C(=O)O3)c21 and give its recorded IC50. 128

Consider the compound Cn1c(=O)ccc2ccc(F)c(CCNCC[C@@H]3CN(c4cnc5c(n4)NC(=O)CO5)C(=O)O3)c21 (single isomer, unassigned) and give its recorded IC50. 101
